// data source = patent US20240368133A1

Each item that follows carries a reported inhibition at 10 µM.
biological target: human AT1R (Homo sapiens (Human), UniProt P30556); assay: Counterscreen radioligand binding assay, displacement of 125I-[Sar1, Ile8]-Angiotensin II, hAT1R WT; details: 125I-[Sar1, Ile8]-Ang II, compound at 10 μM, semi-quantitative score, read-out: % Displaced radioligand at 10 μM
Sequence (P30556 whole entry): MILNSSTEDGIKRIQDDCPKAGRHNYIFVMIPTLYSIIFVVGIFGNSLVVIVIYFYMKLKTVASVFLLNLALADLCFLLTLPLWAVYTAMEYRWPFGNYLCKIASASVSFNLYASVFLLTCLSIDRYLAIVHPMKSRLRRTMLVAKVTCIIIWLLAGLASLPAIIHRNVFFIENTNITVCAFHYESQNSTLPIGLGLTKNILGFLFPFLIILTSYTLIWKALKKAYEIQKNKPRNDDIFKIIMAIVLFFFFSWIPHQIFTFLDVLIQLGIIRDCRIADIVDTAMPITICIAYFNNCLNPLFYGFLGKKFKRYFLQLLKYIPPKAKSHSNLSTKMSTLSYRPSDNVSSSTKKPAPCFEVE

Guide cases for inhibition at 10 µM, answers given:
Cc1noc(C)c1CN1CCN(c2cc(CC(C)C)ccc2-c2nn[nH]n2)CC1 | < 30%
CCS(=O)(=O)NC(=O)c1ccc(OCC(C)C)cc1N1CCN(Cc2nc3ccccc3s2)CC1 | 30 to 50%
Cc1scnc1CN1CCN(c2cc(CC(C)C)ccc2-c2nn[nH]n2)CC1 | < 30%
CCS(=O)(=O)NC(=O)c1ccc(OC(C)C)cc1N1CCN(Cc2nc3ccccc3s2)CC1 | < 30%
Cc1cc(CC(C)C)cc(N2CCN(Cc3cccnn3)CC2)c1-c1nn[nH]n1 | < 30%

Now look at this entry.
Reported inhibition at 10 µM for CC(C)Cc1ccc(-c2nn[nH]n2)c(N2CCN(Cc3cc(=O)n4ccccc4n3)CC2)c1 was < 30%
